The reported measurements were obtained from ChEMBL document CHEMBL5236638.

Assign Emax to each entry below.
- target desc: Free fatty acid receptor 4 (Homo sapiens) (UniProt Q5NUL3)
- Sequence (Q5NUL3 whole entry): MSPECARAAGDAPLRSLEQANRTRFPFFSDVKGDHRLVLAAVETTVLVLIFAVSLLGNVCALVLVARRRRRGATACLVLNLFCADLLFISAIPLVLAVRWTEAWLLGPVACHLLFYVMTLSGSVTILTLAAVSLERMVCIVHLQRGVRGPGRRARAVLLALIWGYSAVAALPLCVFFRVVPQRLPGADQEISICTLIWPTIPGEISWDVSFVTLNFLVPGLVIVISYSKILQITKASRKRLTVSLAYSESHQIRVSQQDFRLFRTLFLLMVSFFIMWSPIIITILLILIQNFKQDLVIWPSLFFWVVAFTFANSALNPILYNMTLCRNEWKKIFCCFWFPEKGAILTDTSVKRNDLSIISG
- measurement description: Agonist activity at N-terminal FLAG tagged human FFAR4 transfected in African green monkey COS-7 cells assessed as accumulation of inositol phosphate at 10 uM incubated for 90 mins by TopCount NXT counter based analysis relative to control
- Format: cell-based
- measurement context: filed as agonist
One number for each entry, in %.

Cc1ccc(Nc2nc(N)nc(COc3cc(N4CCCC4=O)ccc3C)n2)cc1Cl: 43
Cc1cc(OCc2nc(N)nc(Nc3ccc(C)c(Cl)c3)n2)cc(N2CCCC2=O)c1: 50
COc1cc(OCc2nc(N)nc(Nc3ccc(C)c(Cl)c3)n2)cc(N2CCCC2=O)c1: 43
Cc1ccc(Nc2nc(N)nc(COc3cc(F)cc(N4CCCC4=O)c3)n2)cc1Cl: 47

// sample `Cc1ccc(Nc2nc(N)nc(COc3cccc(N4CCCC4=O)c3C)n2)cc1Cl` , its Emax was 46

====

- target desc: Free fatty acid receptor 1 (Homo sapiens)
- Sequence (O14842 whole entry): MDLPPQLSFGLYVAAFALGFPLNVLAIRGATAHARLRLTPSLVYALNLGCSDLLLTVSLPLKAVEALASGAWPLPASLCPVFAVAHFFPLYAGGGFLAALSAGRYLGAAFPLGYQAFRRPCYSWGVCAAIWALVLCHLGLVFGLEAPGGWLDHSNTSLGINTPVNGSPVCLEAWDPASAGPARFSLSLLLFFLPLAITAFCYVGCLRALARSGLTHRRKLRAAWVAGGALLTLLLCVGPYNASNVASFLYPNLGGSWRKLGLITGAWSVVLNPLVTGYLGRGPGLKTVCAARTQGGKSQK
- measurement description: Agonist activity at N-terminal FLAG tagged human FFAR1 transfected in African green monkey COS-7 cells assessed as accumulation of inositol phosphate incubated for 90 mins by TopCount NXT counter based analysis
Mark label 1 only for EC50 values smaller than 1000 nM; exact matches and larger values are label 0.

Cc1ccc(Nc2nc(N)nc(COc3cc(F)cc(N4CCCC4=O)c3)n2)cc1Cl: label 0
Cc1cc(OCc2nc(N)nc(NC3(Cc4cccc(Cl)c4)CC3)n2)cc(N2CCCC2=O)c1: label 1
Cc1cc(OCc2nc(N)nc(NCC3(c4cccc(Cl)c4)CC3)n2)cc(N2CCCC2=O)c1: label 1

Task: API: query returns whether the compound falls strictly under 1000 nM in EC50. Query: `CCc1cc(=O)oc2cc(OCc3nc(N)nc(Nc4ccc(C)cc4)n3)ccc12`
Output: label 0

Task: API: query returns whether the compound falls strictly under 1000 nM in EC50. Query: `COc1ccc(CCNc2nc(N)nc(COc3cc(C)cc(N4CCCC4=O)c3)n2)cc1`
Output: label 0

Task: API: query returns whether the compound falls strictly under 1000 nM in EC50. Query: `Cc1ccc(Nc2nc(N)nc(COc3ccc(Cl)c(N4CCCC4=O)c3)n2)cc1Cl`
Output: label 0

Task: API: query returns whether the compound falls strictly under 1000 nM in EC50. Query: `Cc1cc(OCc2nc(N)nc(NCCc3ccccc3C)n2)cc(N2CCCC2=O)c1`
Output: label 1

Task: API: query returns whether the compound falls strictly under 1000 nM in EC50. Query: `Cc1ccc(Nc2nc(N)nc(COc3cc(C#N)cc(N4CCCC4=O)c3)n2)cc1Cl`
Output: label 0

Task: API: query returns whether the compound falls strictly under 1000 nM in EC50. Query: `Cc1ccc(Nc2nc(N)nc(COc3ccc4c(C)cc(=O)oc4c3)n2)cc1C`
Output: label 1

Task: API: query returns whether the compound falls strictly under 1000 nM in EC50. Query: `Cc1cc(OCc2nc(N)nc(NCCc3c(C)cccc3C)n2)cc(N2CCCC2=O)c1`
Output: label 1

====

- target desc: UniProt:O14842
- measurement description: Agonist activity at N-terminal FLAG tagged human FFAR1 transfected in African green monkey COS-7 cells assessed as accumulation of inositol phosphate incubated for 90 mins by TopCount NXT counter based analysis
pEC50: −log10 of the molar value.
Rule: pEC50 of 8 or more gives Condition met; anything lower gives Condition not met.

Solved cases (3 shown):
Cc1ccc(Nc2nc(N)nc(COc3cccc(N4CCCC4=O)c3F)n2)cc1Cl: Condition not met
CCc1ccc(Nc2nc(N)nc(COc3ccc4c(C)cc(=O)oc4c3)n2)cc1Cl: Condition not met
Cc1ccc(Nc2nc(N)nc(COc3ccc4c(C)cc(=O)oc4c3)n2)cc1Cl: Condition not met

Task: Evaluate `Cc1cc(OCc2nc(N)nc(NCCc3cccc(Cl)c3)n2)cc(N2CCCC2=O)c1` : pEC50 at minimum 8?
Output: Condition met

Task: Evaluate `Cc1cc(OCc2nc(N)nc(NCCc3ccc(Cl)cc3Cl)n2)cc(N2CCCC2=O)c1` : pEC50 at minimum 8?
Output: Condition not met

Task: Evaluate `Cc1cc(=O)oc2cc(OCc3nc(N)nc(Nc4ccc(Cl)cc4)n3)ccc12` : pEC50 at minimum 8?
Output: Condition not met

Task: Evaluate `Cc1cc(OCc2nc(N)nc(NCCc3c(F)cccc3F)n2)cc(N2CCCC2=O)c1` : pEC50 at minimum 8?
Output: Condition met
